Assay: physchem
Conditions: 25 °C, pH 7.4, aqueous buffer, kinetic from dmso stock
Each entry gets 0.0 if its solubility at 30 min stays under 20 µM, and 1.0 if its solubility at 30 min is 20 µM or above.

[
  {
    "molecule": "CC[C@@]1(O)C(=O)OCc2c1cc1n(c2=O)Cc2c-1nc1cc(F)c(C)c3c1c2[C@@H](NC(=O)c1cn(CCO)nn1)CC3",
    "group_label": 1.0
  },
  {
    "molecule": "CC[C@@]1(O)C(=O)OCc2c1cc1n(c2=O)Cc2c-1nc1cc(F)c(C)c3c1c2[C@@H](NC(=O)NC(CO)(CO)CO)CC3",
    "group_label": 1.0
  },
  {
    "molecule": "CC[C@@]1(O)C(=O)OCc2c1cc1n(c2=O)Cc2c-1nc1cc(F)c(C)c3c1c2[C@@H](NC(=O)[C@H]1C[C@H]1CO)CC3 (single isomer, unassigned)",
    "group_label": 1.0
  },
  {
    "molecule": "CC[C@@]1(O)C(=O)OCc2c1cc1n(c2=O)Cc2c-1nc1cc(F)c(C)c3c1c2[C@@H](N)CC3",
    "group_label": 1.0
  },
  {
    "molecule": "CC[C@@]1(O)C(=O)OCc2c1cc1n(c2=O)Cc2c-1nc1cc(F)c(C)c3c1c2[C@@H](NC(=O)CCC(=O)NCCO)CC3",
    "group_label": 1.0
  },
  {
    "molecule": "CC[C@@]1(O)C(=O)OCc2c1cc1n(c2=O)Cc2c-1nc1cc(F)c(C)c3c1c2[C@@H](NC(=O)c1ccc(CO)o1)CC3",
    "group_label": 0.0
  },
  {
    "molecule": "CC[C@@]1(O)C(=O)OCc2c1cc1n(c2=O)Cc2c-1nc1cc(F)c(C)c3c1c2[C@@H](N(C=O)CCO)CC3",
    "group_label": 1.0
  },
  {
    "molecule": "CC[C@@]1(O)C(=O)OCc2c1cc1n(c2=O)Cc2c-1nc1cc(F)c(C)c3c1c2[C@@H](NS(=O)(=O)CCCO)CC3",
    "group_label": 0.0
  }
]

### Prompt Evaluate "CC[C@@]1(O)C(=O)OCc2c1cc1n(c2=O)Cc2c-1nc1cc(F)c(C)c3c1c2[C@@H](NCCO)CC3" : solubility at 30 min at minimum 20 µM?
### Response 1.0

### Prompt Evaluate "CC[C@@]1(O)C(=O)OCc2c1cc1n(c2=O)Cc2c-1nc1cc(F)c(C)c3c1c2[C@@H](NCCOCCO)CC3" : solubility at 30 min at minimum 20 µM?
### Response 1.0

###

Form field: IC50 (one value per entry).
Test system: HT29
Test: In vitro cytotoxicity assay (CellTiter-Glo), HT29
Assay type: cell-based, Human
Settings: Homo sapiens, HT-29, 144 h, read-out: Cytotoxicity IC50
Answer with a number only, understood to be in nM.

Example results:
[
  {
    "compound": "CC[C@@]1(O)C(=O)OCc2c1cc1n(c2=O)Cc2c-1nc1cc(F)c(C)c3c1c2[C@@H](NC(=O)C1(O)COC1)CC3 [Compound 159]",
    "IC50 [nM]": 64.2
  },
  {
    "compound": "CC[C@@]1(O)C(=O)OCc2c1cc1n(c2=O)Cc2c-1nc1cc(F)c(C)c3c1c2[C@@H](NC(=O)C1OC(O)C(O)C1O)CC3 (some centres unmarked) [Compound 100]",
    "IC50 [nM]": 93.4
  },
  {
    "compound": "CC[C@@]1(O)C(=O)OCc2c1cc1n(c2=O)Cc2c-1nc1cc(F)c(C)c3c1c2[C@@H](NC(=O)[C@H]1C[C@H]1CO)CC3 (single isomer, unassigned) [Compound 111-B]",
    "IC50 [nM]": 6.3
  },
  {
    "compound": "CC[C@@]1(O)C(=O)OCc2c1cc1n(c2=O)Cc2c-1nc1cc(F)c(C)c3c1c2[C@@H](N(CCO)C(C)=O)CC3 [Compound 136]",
    "IC50 [nM]": 36.8
  },
  {
    "compound": "CC[C@@]1(O)C(=O)OCc2c1cc1n(c2=O)Cc2c-1nc1cc(F)c(C)c3c1c2[C@@H](NC(=O)C#CCO)CC3 [Compound 83]",
    "IC50 [nM]": 255
  },
  {
    "compound": "CC[C@@]1(O)C(=O)OCc2c1cc1n(c2=O)Cc2c-1nc1cc(F)c(C)c3c1c2[C@@H](NC(=O)CCC(=O)NCCO)CC3 [Compound 16]",
    "IC50 [nM]": 1140
  },
  {
    "compound": "CC[C@@]1(O)C(=O)OCc2c1cc1n(c2=O)Cc2c-1nc1cc(F)c(C)c3c1c2[C@@H](N)CC3 [Exatecan, exatecan]",
    "IC50 [nM]": 1
  },
  {
    "compound": "CC[C@@]1(O)C(=O)OCc2c1cc1n(c2=O)Cc2c-1nc1cc(F)c(C)c3c1c2[C@@H](NC(=O)[C@@H]1C[C@H]1CO)CC3 (single isomer, unassigned) [Compound 111-A]",
    "IC50 [nM]": 34.4
  },
  {
    "compound": "CC[C@@]1(O)C(=O)OCc2c1cc1n(c2=O)Cc2c-1nc1cc(F)c(C)c3c1c2[C@@H](NCc1cnnn1CCO)CC3 [Compound 109]",
    "IC50 [nM]": 56.8
  },
  {
    "compound": "CC[C@@]1(O)C(=O)OCc2c1cc1n(c2=O)Cc2c-1nc1cc(F)c(C)c3c1c2[C@@H](Nc1c(O)c(=O)c1=O)CC3 [Compound 129]",
    "IC50 [nM]": 282
  }
]

Now look at this entry.
### Prompt Quick check: IC50 of CC[C@@]1(O)C(=O)OCc2c1cc1n(c2=O)Cc2c-1nc1cc(F)c(C)c3c1c2[C@@H](NC(=O)CCC(=O)NCC(O)CO)CC3 (some centres unmarked) [Compound 117] ?
### Response 2910

###

Test: physchem
Conditions: 25 °C, pH 7.4, aqueous buffer, kinetic from dmso stock
Each entry gets Criterion not met if its solubility at 30 min stays under 20 µM, and Criterion met if its solubility at 30 min is 20 µM or above.

Consider the worked cases shown below.
[
  {
    "compound": "CC[C@@]1(O)C(=O)OCc2c1cc1n(c2=O)Cc2c-1nc1cc(F)c(C)c3c1c2[C@@H](NCCNCCN)CC3 [Compound 164]",
    "group_label": "Criterion not met"
  },
  {
    "compound": "CC[C@@]1(O)C(=O)OCc2c1cc1n(c2=O)Cc2c-1nc1cc(F)c(C)c3c1c2[C@@H](N(C)CCO)CC3 [Compound 140]",
    "group_label": "Criterion not met"
  },
  {
    "compound": "CC[C@@]1(O)C(=O)OCc2c1cc1n(c2=O)Cc2c-1nc1cc(F)c(C)c3c1c2[C@@H](NC(=O)c1cc(O)[nH]n1)CC3 [Compound 166]",
    "group_label": "Criterion met"
  },
  {
    "compound": "CC[C@@]1(O)C(=O)OCc2c1cc1n(c2=O)Cc2c-1nc1cc(F)c(C)c3c1c2[C@@H](NC(=O)CC(=O)NCCO)CC3 [Compound 12]",
    "group_label": "Criterion not met"
  }
]

### Prompt Evaluate CC[C@@]1(O)C(=O)OCc2c1cc1n(c2=O)Cc2c-1nc1cc(F)c(C)c3c1c2[C@@H](NC(=O)C1OC(O)C(O)C1O)CC3 (stereo partly shown) [Compound 100] : solubility at 30 min at minimum 20 µM?
### Response Criterion met

### Prompt Evaluate CC[C@@]1(O)C(=O)OCc2c1cc1n(c2=O)Cc2c-1nc1cc(F)c(C)c3c1c2[C@@H](Nc1c(O)c(=O)c1=O)CC3 [Compound 129] : solubility at 30 min at minimum 20 µM?
### Response Criterion met

### Prompt Evaluate CC[C@@]1(O)C(=O)OCc2c1cc1n(c2=O)Cc2c-1nc1cc(F)c(C)c3c1c2[C@@H](Nc1c(NCCO)c(=O)c1=O)CC3 [Compound 2] : solubility at 30 min at minimum 20 µM?
### Response Criterion not met

###

Test system: HT29
Experiment: In vitro cytotoxicity assay (CellTiter-Glo), HT29
Type: cell-based, Human
Conditions: Homo sapiens, HT-29, 144 h, read-out: Cytotoxicity IC50
Protocol: Human tumor cell lines, SK-BR-3, NCI-H292, HT-29, MCF-7, NCI-N87, and FaDu were obtained from ATCC. […] Lyophilized compounds were dissolved in 100% dry DMSO, aliquots frozen and stored at −80° C. Concentration and purity of compound stock solutions in DMSO were determined by RP-HPLC Agilent 1100 platform with 1200 DAD and SofTA ELSD detectors, and the Agilent 6150 MS system (UV/VIS, ELSD purity and MS compound identity confirmation). […]
Threshold-based label: IC50 under 10 nM gives Satisfied, IC50 not under 10 nM gives Not satisfied.

Consider the worked cases shown below.
[
  {
    "molecule": "CC[C@@]1(O)C(=O)OCc2c1cc1n(c2=O)Cc2c-1nc1cc(F)c(C)c3c1c2[C@@H](NC(=O)C12CC(O)(C1)C2)CC3 [Compound 79]",
    "group_label": "Not satisfied"
  },
  {
    "molecule": "CC[C@@]1(O)C(=O)OCc2c1cc1n(c2=S)Cc2c-1nc1cc(F)c(C)c3c1c2[C@@H](NC(=O)CO)CC3 [Compound 106]",
    "group_label": "Satisfied"
  },
  {
    "molecule": "CC[C@@]1(O)C(=O)OCc2c1cc1n(c2=O)Cc2c-1nc1cc(F)c(C)c3c1c2[C@@H](NC(=O)c1coc(CO)n1)CC3 [Compound 167]",
    "group_label": "Not satisfied"
  },
  {
    "molecule": "CC[C@@]1(O)C(=O)OCc2c1cc1n(c2=O)Cc2c-1nc1cc(F)c(C)c3c1c2[C@@H](Nc1c(NCC(O)CO)c(=O)c1=O)CC3 (stereo partly drawn) [Compound 115]",
    "group_label": "Not satisfied"
  },
  {
    "molecule": "CC[C@@]1(O)C(=O)OCc2c1cc1n(c2=O)Cc2c-1nc1cc(F)c(C)c3c1c2[C@@H](NC(=O)CCC(=O)NC(CO)(CO)CO)CC3 [Compound 122]",
    "group_label": "Not satisfied"
  },
  {
    "molecule": "CC[C@@]1(O)C(=O)OCc2c1cc1n(c2=O)Cc2c-1nc1cc(F)c(C)c3c1c2[C@@H](NC(=O)NC(CO)(CO)CO)CC3 [Compound 48]",
    "group_label": "Not satisfied"
  },
  {
    "molecule": "CC[C@@]1(O)C(=O)OCc2c1cc1n(c2=O)Cc2c-1nc1cc(F)c(C)c3c1c2[C@@H](NCc1cn(CCO)nn1)CC3 [Compound 108]",
    "group_label": "Not satisfied"
  },
  {
    "molecule": "CC[C@@]1(O)C(=O)OCc2c1cc1n(c2=O)Cc2c-1nc1cc(F)c(C)c3c1c2[C@@H](NS(=O)(=O)CCCO)CC3 [Compound 110]",
    "group_label": "Not satisfied"
  }
]

### Prompt Threshold test, IC50 < 10 nM: CC[C@@]1(O)C(=O)OCc2c1cc1n(c2=O)Cc2c-1nc1cc(F)c(C)c3c1c2[C@@H](NCCOCCO)CC3 [Compound 147]
### Response Satisfied
